- MEASURED_ON: Cbl-b (Homo sapiens, UniProt Q13191)
- Sequence (Q13191 36-427): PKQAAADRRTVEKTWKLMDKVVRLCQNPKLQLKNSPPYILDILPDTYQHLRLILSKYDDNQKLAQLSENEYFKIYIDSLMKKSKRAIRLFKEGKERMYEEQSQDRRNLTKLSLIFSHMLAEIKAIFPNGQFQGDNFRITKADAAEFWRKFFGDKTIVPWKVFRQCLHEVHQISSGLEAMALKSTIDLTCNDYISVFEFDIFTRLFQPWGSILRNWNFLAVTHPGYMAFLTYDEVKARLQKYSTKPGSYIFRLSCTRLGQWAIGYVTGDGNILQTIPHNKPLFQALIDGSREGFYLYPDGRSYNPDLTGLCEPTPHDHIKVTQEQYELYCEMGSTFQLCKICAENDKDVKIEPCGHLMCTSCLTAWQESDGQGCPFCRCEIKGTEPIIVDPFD
- ASSAY_REMARKS: Cbl-b inhibition assay (Cbl-b activity assay, FRET, Biological Example 1; 100 mM NaCl, 60 nM Src kinase)
- Type: biochemical
- RECORDED_CONDITIONS: upper bound stated in text lists; read-out: IC50 values in the Cbl-b inhibition assay of Biological Example 1
ASSAY_ENDPOINT: IC50

Some molecules with known IC50 results, for comparison:
- MOLECULE: "C[C@@H](Cc1nncn1C)c1cccc(NC(=O)c2cc3cc(N4CCN(C)C(=O)C4)ccc3cn2)c1 [Compound 210, 2,2,2-trifluoroacetate]"
  ASSAY_ENDPOINT: "IC50"
  READOUT_VALUE: "≤ 10 µM"
- MOLECULE: "COc1ccc2c(c1)CN(Cc1cc3c(c(C(F)(F)F)c1)CN(c1cccc(C4(Cc5nncn5C)COC4)c1)C3=O)CC2 [Example 661]"
  ASSAY_ENDPOINT: "IC50"
  READOUT_VALUE: "≤ 0.1 µM"
- MOLECULE: "C[C@H](Cc1nncn1C)c1cccc(NC(=O)c2cc(C(=O)N3CCC4(CCO4)C3)ccn2)c1 (some centres unmarked) [Compound 237]"
  ASSAY_ENDPOINT: "IC50"
  READOUT_VALUE: "≤ 10 µM"
- MOLECULE: "COc1cccc(C(=O)Nc2cccc([C@H](C)Sc3nncn3C)c2)n1 [Compound 38]"
  ASSAY_ENDPOINT: "IC50"
  READOUT_VALUE: "≤ 1 µM"

// input: 2 molecules below; output: IC50 for each
1. Cn1cnnc1CC1(c2cccc(NC(=O)c3cc(CN4CCC5CC54)cc(C4CC4)n3)c2)COC1 (centres unmarked) [Compound 497]
2. C[C@H](Cc1nncn1C)c1cccc(NC(=O)c2cc(C(=O)N3C[C@@H](O)[C@H](F)C3)ccn2)c1 [Compound 240]

Result:
["≤ 0.1 µM", "≤ 0.5 µM"]

// input: 2 molecules below; output: IC50 for each
1. C[C@H](Sc1nncn1C)c1ccnc(NC(=O)c2csc(C(F)(F)F)n2)c1 [Compound 118]
2. Cc1ccc(C(=O)Nc2cccc([C@H](C)[C@H](O)c3nncn3C)c2)nc1C1CC1 [Compound 288]

Result:
["≤ 10 µM", "≤ 10 µM"]

====

Exercise: state measured pIC50 for each of the molecules provided.
- MEASURED_ON: Cbl-b (Homo sapiens, UniProt Q13191)
- ASSAY_REMARKS: Cbl-b activity assay (Cbl-b inhibition assay), TR-FRET of Cbl-b interaction with UbcH5B-Ub
- Format: biochemical
- RECORDED_CONDITIONS: assay buffer with 100 mM NaCl, 60 nM Src kinase; read-out: Cbl-b activity IC50
pIC50: −log10 of the molar value.

- MOLECULE: "C[C@H](Sc1nncn1C)c1cccc(NC(=O)c2cccc(C(F)(F)F)c2F)c1"
  READOUT_VALUE: "6.00 to 6.52"

// input: 3 molecules below; output: pIC50 for each
1. C[C@H](Cc1nncn1C)c1cccc(NC(=O)c2cnn3cccnc23)c1
2. C[C@H](Cc1nncn1C)c1cccc(NC(=O)c2cc(C(=O)N3CC[C@H](C#N)C3)ccn2)c1
3. Cn1cnnc1CC1(c2cccc(N3Cc4c(cc(N5CCOCC5)cc4C(F)(F)F)C3=O)c2)COC1

Result:
["6.00 to 6.52", "5.52 to 6.00", "> 7.00"]

// input: 4 molecules below; output: pIC50 for each
1. Cn1cnnc1CC1(c2cccc(N3Cc4c(cc(CN5CCC(F)CC5)cc4C(F)(F)F)C3=O)c2)COC1
2. C[C@H](Cc1nncn1C)c1cccc(NC(=O)c2cc(S(N)(=O)=O)cc(C(F)(F)F)n2)c1
3. C[C@H](Cc1nncn1C)c1cccc(NC(=O)c2cccc(C(F)(F)CO)n2)c1
4. Cn1cnnc1CC1(c2cccc(NC(=O)c3cc(OC(F)F)cc(C4CC4)n3)c2)COC1

Result:
> 7.00
6.52 to 7.00
6.52 to 7.00
> 7.00

====

- MEASURED_ON: Cbl-b (Homo sapiens)
- ASSAY_REMARKS: Cbl-b activity assay (Cbl-b inhibition assay), TR-FRET of Cbl-b interaction with UbcH5B-Ub
- Assay type: biochemical
- RECORDED_CONDITIONS: assay buffer with 100 mM NaCl, 60 nM Src kinase; read-out: Cbl-b activity IC50
pIC50: −log10 of the molar value.
ASSAY_ENDPOINT: pIC50

Some compounds with known pIC50 results, for comparison:
- COMPOUND: "Cn1cnnc1[C@@H](F)[C@](C)(F)c1cccc(N2Cc3c(cc(C4CC4)cc3C(F)(F)F)C2=O)c1 (stereo in doubt) [Compound 482]"
  MEASURED_ON: "Cbl-b (Homo sapiens)"
  pIC50: "6.00 to 6.52"
- COMPOUND: "Cn1cnnc1CC(C)(C)c1cccc(NC(=O)c2cccc(C(F)(F)F)n2)c1 [Compound 284]"
  MEASURED_ON: "Cbl-b (Homo sapiens)"
  pIC50: "> 7.00"
- COMPOUND: "Cn1cnnc1C(F)(F)[C@](C)(F)c1cccc(NC(=O)c2cc(CN3CC[C@H](F)C3)nc(C3CC3)n2)c1 [Compound 512]"
  MEASURED_ON: "Cbl-b (Homo sapiens)"
  pIC50: "> 7.00"
- COMPOUND: "Cc1ccc(C(=O)Nc2cccc([C@H](C)Sc3nncn3C)c2)nc1C(F)(F)F [Compound 61]"
  MEASURED_ON: "Cbl-b (Homo sapiens)"
  pIC50: "6.52 to 7.00"

Shift focus to the following entry.
Task: Recorded pIC50 of C[C@H](Cc1nncn1C)c1cccc(NC(=O)c2nc(C(F)(F)F)c[nH]2)c1 [Compound 326] , please.
Result: 6.52 to 7.00

====

- MEASURED_ON: Cbl-b (Homo sapiens)
- ASSAY_REMARKS: Cbl-b inhibition assay (Cbl-b activity assay, FRET, Biological Example 1; 100 mM NaCl, 60 nM Src kinase)
- Type: biochemical
- RECORDED_CONDITIONS: upper bound stated in text lists; read-out: IC50 values in the Cbl-b inhibition assay of Biological Example 1
Exercise: state measured IC50 for each of the compounds provided.

Some compounds with known IC50 results, for comparison:
- COMPOUND: "CN1C[C@H]2C[C@@H]1CN2c1cc2c(c(C(F)(F)F)c1)CN(c1cccc([C@@](C)(F)C(F)(F)c3nncn3C)c1)C2=O"
  IC50: "≤ 100 nM"
- COMPOUND: "Cn1cnnc1C[C@@]1(c2cccc(N3Cc4c(cc(CN5CCC6(CC6)C5)cc4C(F)(F)F)C3=O)c2)CCOC1 (single isomer, unassigned) [Compound 517a]"
  IC50: "≤ 100 nM"
- COMPOUND: "Cn1cnnc1CC1(c2cccc(N3Cc4c(cc(CN5CCC(F)(F)C(O)C5)cc4C(F)(F)F)C3=O)c2)COC1 (stereo not shown)"
  IC50: "≤ 100 nM"

Shift focus to the following entry.
Task: Recorded IC50 of CNc1cc(C(C)Sc2nncn2C)cc(N2Cc3c(cccc3C(F)(F)F)C2=O)n1 (stereo not shown) , please.
Result: ≤ 10000 nM

====

- Tested on: T-cell
- ASSAY_REMARKS: IL-2 secretion from T-cells co-stimulated with anti-CD3 and anti-CD28 antibody (Biological Example 2)
- Type: cell-based, human
- RECORDED_CONDITIONS: Homo sapiens, T-cell, fold change over baseline; 1 μM Cbl-b inhibitor; primary human total T-cells; read-out: IL-2 secretion Anti-CD3/Anti-CD28 stimulation
ASSAY_ENDPOINT: fold induction at 1 µM

- MOLECULE: "Cc1cccc2nc(C(=O)Nc3cccc([C@H](C)Sc4nncn4C)c3)ccc12"
  READOUT_VALUE: "5 to 7.5"
- MOLECULE: "Cc1cc(C(=O)Nc2cccc([C@H](C)Cc3nncn3C)c2)nc(C2CC2)n1"
  READOUT_VALUE: "> 7.5"
- MOLECULE: "CC1OCC1Oc1cc([C@H](C)Cc2nncn2C)cc(N2Cc3c(cccc3C(F)(F)F)C2=O)n1 (stereo partly shown)"
  READOUT_VALUE: "1.01 to 2.5"

Shift focus to the following entry.
Task: Recorded fold induction at 1 µM of C[C@H](Sc1nncn1C)c1cccc(NC(=O)c2cccc(S(C)(=O)=O)n2)c1 , please.
Result: 1.01 to 2.5

====

Exercise: state measured IC50 for each of the compounds provided.
- MEASURED_ON: Cbl-b (Homo sapiens)
- ASSAY_REMARKS: Cbl-b inhibition assay (Cbl-b activity assay, FRET, Biological Example 1; 100 mM NaCl, 60 nM Src kinase)
- Type: biochemical
- RECORDED_CONDITIONS: upper bound stated in text lists; read-out: IC50 values in the Cbl-b inhibition assay of Biological Example 1

Some compounds with known IC50 results, for comparison:
- COMPOUND: "Cn1cnnc1CC1(c2cccc(N3Cc4c(cc(CN5CCc6cccnc6C5)cc4C(F)(F)F)C3=O)c2)COC1"
  IC50: "≤ 100 nM"
- COMPOUND: "Cc1c[nH]nc1-c1cc2c(c(C(F)(F)F)c1)CN(c1cccc([C@H](C)Cc3nncn3C)c1)C2=O"
  IC50: "≤ 100 nM"
- COMPOUND: "C[C@H](Cc1nncn1C)c1cccc(NC(=O)c2cc(C(=O)NC3CCOC3)ccn2)c1 (stereo partly shown)"
  IC50: "≤ 10000 nM"
- COMPOUND: "C[C@H](Sc1nncn1C)c1ccnc(N2Cc3c(cccc3C(F)(F)F)C2=O)c1 [Compound 172a]"
  IC50: "≤ 1000 nM"
- COMPOUND: "Cn1cnnc1CC1(c2cccc(N3Cc4c(cccc4C(F)(F)F)C3=O)c2)CC1"
  IC50: "≤ 100 nM"

// input: 3 compounds below; output: IC50 for each
1. CNCCNC(=O)c1ccnc(C(=O)Nc2cccc([C@H](C)Cc3nncn3C)c2)c1
2. CN1CCN(c2cc3c(c(C(F)(F)F)c2)CN(c2cccc([C@@](C)(F)C(F)(F)c4nncn4C)c2)C3=O)CC1
3. C[C@H](Cc1nncn1C)c1cc(-c2cn[nH]c2)nc(N2Cc3c(cccc3C(F)(F)F)C2=O)c1

Result:
["≤ 10000 nM", "≤ 300 nM", "≤ 1000 nM"]

// input: 4 compounds below; output: IC50 for each
1. Cc1n[nH]c(C)c1-c1cc2c(c(C(F)(F)F)c1)CN(c1cccc(C3(Cc4nncn4C)COC3)c1)C2=O
2. CC(O)c1cc2c(c(C(F)(F)F)c1)CN(c1cccc([C@H](C)Cc3nncn3C)c1)C2=O (stereo partly shown)
3. Cn1cnnc1CC1(c2cccc(N3Cc4c(cc(CN5CCC6(CC5)CC6)cc4C(F)(F)F)C3=O)c2)COC1
4. C[C@H](CO)Nc1cc([C@H](C)Cc2nncn2C)cc(N2Cc3c(cccc3C(F)(F)F)C2=O)n1

Result:
["≤ 100 nM", "≤ 100 nM", "≤ 100 nM", "≤ 300 nM"]

// input: 3 compounds below; output: IC50 for each
1. Cc1cc(C(=O)Nc2cccc(-c3c(-c4nncn4C)cnn3C)c2)nc(C2CC2)n1
2. C[C@H](Sc1nncn1C)c1ccnc(NC(=O)c2ccc3ccccc3n2)c1
3. Cn1cnnc1CC(C)(F)c1cccc(N2Cc3c(cccc3C(F)(F)F)C2=O)c1 (racemic)

Result:
1. ≤ 300 nM
2. ≤ 1000 nM
3. ≤ 500 nM
